src = patent US20040023362A1

test system: Bacterial consortium VUN 10,009; test: Degradation of high molecular weight PAHs by axenic cultures; type: cell-based; settings: BSM, 56 day samples
attribute measured: PAH removal (%)

> print(dat)
                                   molecule    data.value
1  c1ccc2cc3c(ccc4ccccc43)cc2c1 [Benz[a]anthracene, benz[a]anthracene]    7.8 ± 0.3%
2  c1ccc2c(c1)ccc1cc3c(ccc4ccccc43)cc12 [Dibenz[a,h]anthracene, dibenz[a,h]anthracene]    5.9 ± 0.5%
3  c1ccc2c(c1)cc1ccc3cccc4ccc2c1c34 [Benzo[a]pyrene, benzo[a]pyrene]    6.7 ± 0.9%
4                c1cc2ccc3cccc4ccc(c1)c2c34  100.0 ± 0.0%
5              c1ccc2c(c1)ccc1c3ccccc3ccc21    8.2 ± 0.5%
